Target: HLA A3301 (human)
Test: 125I-probe competition, purified HLA
measure: IC50 (nM)

1) SVICFVNSK (modifications not checked) [HPV16.E1.497] :: 51
2) KVSEFRWYRY (modifications not checked) [HPV31.E6.72] :: 338
3) MVMLMLVRFK (modifications not checked) [HPV31.E1.253] :: 20
4) STAAALYWYR (modifications not checked) [HPV31.E1.294] :: 47
